Tested on: ryegrass, Italian (Italian ryegrass, Lolium multiflorum)
Assay: Test C greenhouse herbicide test, pre- and postemergence
Type: in vivo
Settings: Preemergence, 125 g ai/ha; scale 0 to 100, 0 is no effect, 100 is complete control
Source text: […]
Reported metric: Plant response rating, Ryegrass, Italian

INSERT INTO measurements (sample_smiles, readout_value) VALUES
  ('Cc1nn(C)c(=O)c(-c2c(C)sc3ccc(Cl)cc23)c1O', 90),
  ('CCC(=O)Oc1c(C)nn(C)c(=O)c1-c1ccc(Br)c2ccccc12', 100),
  ('Cc1cc(C)c2ccccc2c1-c1c(OS(C)(=O)=O)c(C)nn(C)c1=O', 90),
  ('CC(=O)Oc1c(C)nn(C)c(=O)c1-c1ccc(F)c2ccccc12', 95),
  ('Cc1cc(C)c2sc(C)c(-c3c(OC(=O)OCCCl)c(C)nn(C)c3=O)c2c1', 90),
  ('CCOC(=O)Oc1c(C)nn(C)c(=O)c1-c1c(C)sc2ccc(C)cc12', 85),
  ('CC(=O)Oc1c(C)nn(C)c(=O)c1-c1c(C)sc2c(C)cc(C)cc12', 90);
